Item-by-item account of Hb
Organism: Rattus norvegicus
protocolDescription: Open TG-GATES - Regimen: Daily Repeat
Assay type: toxicity, organism-based, Sprague-Dawley
Parameters: regimen Daily Repeat, gender Male, age 6 weeks
appliedConditions: in vivo, po, 0 mg/kg, […], tissue Blood, route gavage, dose level Control, time 7 day
endpointLabel: Hb (g/dL)

> print(dat)
                                   compound  endpointlabel  recordednumber
1  CC1=C(/C=C/C(C)=C/C=C/C(C)=C/CO)C(C)(C)CCC1             Hb            13.6
2       CN1C(=O)CN=C(c2ccccc2)c2cc(Cl)ccc21             Hb            14.2
3      NC(N)=Nc1nc(CSCCC(N)=NS(N)(=O)=O)cs1             Hb            13.7
4                           NNC(=O)c1ccncc1             Hb            13.8
5  O=C(CCCN1CCC(O)(c2ccc(Cl)cc2)CC1)c1ccc(F)cc1             Hb            13.9
6  CCCNC(=O)NS(=O)(=O)c1ccc(Cl)cc1 [CHLORPROPAMIDE]             Hb            13.7
7  COc1ccc2[nH]c([S+]([O-])Cc3ncc(C)c(OC)c3C)nc2c1 (stereo not drawn)             Hb            13.9
8  COC1=CC(=O)C[C@@H](C)[C@]12Oc1c(Cl)c(OC)cc(OC)c1C2=O             Hb            14.1
